assayName: self-splicing fitness, log relative to wild type (ln ratio); higher = more splicing; Tetrahymena group I intron in knt gene, E. coli kanamycin selection, DiMSum; sequences stand for … in CUCUCU…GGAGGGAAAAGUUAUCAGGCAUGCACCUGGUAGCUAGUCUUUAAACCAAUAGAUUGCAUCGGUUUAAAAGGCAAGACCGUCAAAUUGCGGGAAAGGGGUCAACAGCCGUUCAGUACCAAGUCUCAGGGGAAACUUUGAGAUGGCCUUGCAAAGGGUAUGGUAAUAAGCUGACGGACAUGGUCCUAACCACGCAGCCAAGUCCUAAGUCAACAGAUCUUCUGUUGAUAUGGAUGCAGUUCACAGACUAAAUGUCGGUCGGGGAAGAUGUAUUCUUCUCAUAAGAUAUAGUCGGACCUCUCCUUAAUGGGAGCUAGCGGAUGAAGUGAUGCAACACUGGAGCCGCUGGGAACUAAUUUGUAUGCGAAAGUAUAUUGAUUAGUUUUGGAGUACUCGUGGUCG;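 also: selection with 25 µg/mL kanamycin versus none on LB agar overnight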
studyConditions: 30 °C
Would you please tag the item fulfilled when its self-splicing fitness (ln) is -1 or above, and not fulfilled when it is below?

- CGUCAGCAAUAUUACGCGUG: fulfilled

Does the sequence `CUACAGCAAUAUUACGAUUC` have recorded self-splicing fitness (ln) that is -1 or more?
not fulfilled

Does the sequence `AUCCAGCAAUAUUACGAACG` have recorded self-splicing fitness (ln) that is -1 or more?
fulfilled

Does the sequence `CUCAAGCAAUAUUACGACUU` have recorded self-splicing fitness (ln) that is -1 or more?
not fulfilled

Does the sequence `GCGAAGCAAUAUUACGUGCA` have recorded self-splicing fitness (ln) that is -1 or more?
not fulfilled

====

I'd be grateful if you could share measured self-splicing fitness (ln) for these entries.
assayName: self-splicing fitness, log relative to wild type (ln ratio); higher = more splicing; Tetrahymena group I intron in knt gene, E. coli kanamycin selection, DiMSum; sequences stand for … in CUCUCU…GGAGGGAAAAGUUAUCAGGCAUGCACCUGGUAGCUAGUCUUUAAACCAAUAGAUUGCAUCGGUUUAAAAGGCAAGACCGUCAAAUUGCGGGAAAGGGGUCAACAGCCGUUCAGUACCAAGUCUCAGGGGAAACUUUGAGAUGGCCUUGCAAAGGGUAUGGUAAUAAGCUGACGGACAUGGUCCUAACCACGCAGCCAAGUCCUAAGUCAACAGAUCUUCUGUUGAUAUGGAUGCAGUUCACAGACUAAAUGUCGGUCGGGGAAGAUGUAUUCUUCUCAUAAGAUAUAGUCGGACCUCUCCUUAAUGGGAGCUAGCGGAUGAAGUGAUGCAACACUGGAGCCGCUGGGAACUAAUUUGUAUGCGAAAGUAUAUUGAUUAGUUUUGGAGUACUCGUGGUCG
studyConditions: 30 °C
Answers are plain numbers.

Your task in this section: give self-splicing fitness (ln) for each listed record.
1. AUCCAGCAAUAUUACGACCU
2. GCAGAGCAAUAUUACGACUU
3. UAUUAGCAAUAUUACGGCGG
4. CAAGAGCAAUAUUACGCAGU
5. GGCAAGCAAUAUUACGUAUA
6. UUCAAGCAAUAUUACGGUAC
7. GCUCAGCAAUAUUACGAGUA
8. GAGAAGCAAUAUUACGGAAA

1. -1.86
2. -2.82
3. -0.834
4. -4
5. -1.02
6. -2.8
7. -0.337
8. -2.35

Your task in this section: give self-splicing fitness (ln) for each listed record.
1. CGCGAGCAAUAUUACGGCGA
2. GCCUAGCAAUAUUACGUGCU
3. UCGUAGCAAUAUUACGAAGG
4. UAGAAGCAAUAUUACGCUCG
5. AACAAGCAAUAUUACGUCGU
6. CCUAAGCAAUAUUACGGUUC
7. UAUCAGCAAUAUUACGCUCC
8. UGGUAGCAAUAUUACGUCCU

1. -2.29
2. -2.06
3. -3.63
4. -1.06
5. -2.18
6. -3.88
7. -1
8. 0.31

Your task in this section: give self-splicing fitness (ln) for each listed record.
1. CGAAAGCAAUAUUACGCACU
2. GCCAAGCAAUAUUACGUGUA
3. GAUGAGCAAUAUUACGUUUG
4. GAAAAGCAAUAUUACGAGAC
5. AGCCAGCAAUAUUACGUCCU
6. AACGAGCAAUAUUACGUCUG
7. AAUGAGCAAUAUUACGUCGA

1: -0.573; 2: -1.41; 3: -3.24; 4: -2.59; 5: -0.436; 6: -3.17; 7: -3.56

Your task in this section: give self-splicing fitness (ln) for each listed record.
1. CAGAAGCAAUAUUACGCAUG
2. AGGAAGCAAUAUUACGUCAA
3. GGGCAGCAAUAUUACGUAGG
4. AGUUAGCAAUAUUACGCUCA

-3.89
-3.36
-2.38
-1.23

Your task in this section: give self-splicing fitness (ln) for each listed record.
1. CGCCAGCAAUAUUACGUUCC
2. CCGUAGCAAUAUUACGUGCA
3. AAUUAGCAAUAUUACGUCAC
4. UCGUAGCAAUAUUACGGGCG
5. UGAUAGCAAUAUUACGGGUC
6. AAGGAGCAAUAUUACGUAUA

[-2.71, -3.06, -3.93, -2.12, -4.2, -2.76]

Your task in this section: give self-splicing fitness (ln) for each listed record.
1. UCUUAGCAAUAUUACGACAG
2. CAGGAGCAAUAUUACGGGUC
3. AGGUAGCAAUAUUACGCCCU
4. UUUUAGCAAUAUUACGUUAA
5. UUGCAGCAAUAUUACGUAAU
6. ACGCAGCAAUAUUACGACUG

[-2.9, -2.84, -3.56, -2.45, -2.83, -2.72]

Your task in this section: give self-splicing fitness (ln) for each listed record.
1. GGUAAGCAAUAUUACGGUUU
2. CGAUAGCAAUAUUACGGGUU
3. AAAGAGCAAUAUUACGUUAC

-0.707
-3.84
-2.94

Your task in this section: give self-splicing fitness (ln) for each listed record.
1. UUGAAGCAAUAUUACGACAC
2. AGGAAGCAAUAUUACGGUAU
3. CCGCAGCAAUAUUACGAACG
4. UUAGAGCAAUAUUACGGGGU

-1.07
-2.52
-0.44
-2.83
